Test system: HS 578T breast
protocol-summary: NCI tumour cell line growth inhibition, 48 h
Entries and their TGI

>  <compound>
COc1cc2[nH]c(-c3ccccc3)cc(=O)c2cc1OC

>  <TGI>
> 100 µM

$$$$

Query: Fill in: TGI of C=C1CCCCCCCCCCC1S(=O)c1ccccc1 (stereo not drawn) is ___
Reply: > 100 µM

Query: Then this compound: O=C(/C=C/c1ccc([N+](=O)[O-])o1)NNC(=O)c1cc2ccccc2cc1O
Reply: > 100 µM

* * *

Reported values of TGI for individual entries
System: NCI-H226 lung
protocol-summary: NCI tumour cell line growth inhibition, 48 h

>  <compound>
Cc1ccc(-n2c(C)nc3c2C(=O)c2ccccc2C3=O)cc1

>  <observed-result>
> 100 µM

$$$$

Query: Any idea what TGI came out for CC1(C)N=C(N)N=C(N)N1c1cccc(CSc2ccccc2)c1 on NCI-H226 lung?
Reply: > 100 µM

Query: Input CCCc1ccc(N=Cc2cc(OC)c(OC)c(OC)c2)cc1
Reply: > 100 µM
